measured target: 5-hydroxytryptamine receptor 6 (Homo sapiens) (UniProt P50406)
Sequence (P50406 whole entry): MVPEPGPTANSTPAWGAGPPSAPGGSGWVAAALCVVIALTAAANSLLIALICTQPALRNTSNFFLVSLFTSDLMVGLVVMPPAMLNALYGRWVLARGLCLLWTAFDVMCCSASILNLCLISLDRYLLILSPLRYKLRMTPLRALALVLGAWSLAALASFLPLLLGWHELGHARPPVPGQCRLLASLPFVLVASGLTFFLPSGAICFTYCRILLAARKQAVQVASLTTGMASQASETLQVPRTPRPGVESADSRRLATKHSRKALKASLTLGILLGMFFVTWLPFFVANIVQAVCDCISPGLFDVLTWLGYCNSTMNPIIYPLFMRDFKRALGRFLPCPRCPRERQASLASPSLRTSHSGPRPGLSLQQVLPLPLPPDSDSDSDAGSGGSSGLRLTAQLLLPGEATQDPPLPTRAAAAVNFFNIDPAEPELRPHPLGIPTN
procedure summary: Antagonist activity at human recombinant 5HT6 receptor expressed in CHO cells assessed as inhibition of 5HT-induced luciferase activity after 4 hrs by reporter gene assay relative to control
Format: functional, cell-based
attribute measured: Imax (%)

Example entries begin here.
{"smiles entry": "Cc1ccc(S(=O)(=O)n2cc(C)c3cc(Cl)cnc32)cc1NC1CCN(C)CC1", "Imax / %": 97}
{"smiles entry": "COc1ccc(S(=O)(=O)n2cc(C)c3cc(Cl)cnc32)cc1NC1CCN(C)CC1", "Imax / %": 100}
{"smiles entry": "Cc1nn(S(=O)(=O)c2ccc(Cl)c(NC3CCN(C)CC3)c2)c2ccc(Cl)cc12", "Imax / %": 39}
{"smiles entry": "COc1ccc(S(=O)(=O)n2ccc3cc(Br)ccc32)cc1NC1CCNCC1", "Imax / %": 99}
{"smiles entry": "COc1ccc2c(ccn2S(=O)(=O)c2ccc(C)c(NC3CCN(C)CC3)c2)c1", "Imax / %": 70}
{"smiles entry": "COc1ccc2ccn(S(=O)(=O)c3ccc(C)c(NC4CCN(C)CC4)c3)c2c1", "Imax / %": 98}
{"smiles entry": "COc1ccc(S(=O)(=O)n2ccc3cc(OC(C)C)ccc32)cc1NC1CCN(C)CC1", "Imax / %": 100}
{"smiles entry": "Cc1cn(S(=O)(=O)c2cccc(NC3CCN(C)CC3)c2)c2ncc(Cl)cc12", "Imax / %": 99}

A = COc1ccc(S(=O)(=O)n2nc(C)c3cc(Cl)ccc32)cc1NC1CCN(C)CC1.O=C(O)C(O)C(O)C(=O)O
B = Cc1nn(S(=O)(=O)c2ccc(F)c(NC3CCN(C)CC3)c2)c2ccc(Cl)cc12
Input line: # returns the entry with the larger Imax; inputs A and B Answer by quoting the chosen item's label.
Output line: A
(A: 100%, B: 59%)
